Target: T1, UNK ZnF1-3 (human, UniProt Q9C0B0 31-174)
T1 sequence: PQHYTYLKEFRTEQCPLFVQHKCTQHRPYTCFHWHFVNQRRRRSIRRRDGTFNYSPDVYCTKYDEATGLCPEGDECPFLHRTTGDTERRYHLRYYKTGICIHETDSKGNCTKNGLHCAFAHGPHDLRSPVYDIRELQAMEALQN
Assay: nsRBNS (natural sequence RNA bind-n-seq); RBNS binding buffer (assumed for nsRBNS): 25 mM Tris pH 7.5, 150 mM KCl, 3 mM MgCl2, 0.01% Triton X-100, 500 ug/ml BSA, 20 U/ml SUPERase-In, 4 C; UNK is unkempt and MSI1 is Musashi-1; names of the RNAs are library labels; protein concentration not given here; high values mean tight binding
Whole data set: some 24,000 sequences, median “enrichment r” near 0.99, cut for the highest 2% near 3.7. For the sample, the highest values were picked, then their nearest neighbours and some sequences at random.
The entries below are paired with their reported log10 of binding signal.
Please note: log10 values; quantity binding signal; unit enrichment R.

[ask] Fill in reported log10 of binding signal for this entry: chr17:56552419:56552420:-_ENSMUSG00000013236_ENSMUST00000086828|mus_mus|mus_mus_mus_hu_False|58_88 (ssRNA) RNA: GGGAGUUCUACAGUCCGACGAUCAAAAAAUACACUAUUUAAAAAAAAAAGAAAAAAACGGGAUACAGUUACACUGACACUAUUAAAAGAAAGCUGGAUUCUGGUCCCAGCCCAGUGUCCCCAGGCUGCAGAGCGGGGAGGAGCCAACAGAGGAUUGAGCAUCA
[reply] 1.09

[ask] Fill in reported log10 of binding signal for this entry: chr3:122152592:122152593:-_ENSG00000114030_ENST00000344337|hu_mus|motif|central (ssRNA) RNA: GGGAGUUCUACAGUCCGACGAUCAUUUGUGAUGGCCCAAGCAGCUUCCUUCCUUGUCCGGAACUCUGCUGUUUGCAAUAUACGGAUAAGAGCUGGGAACAUGUUAGCAUCUAUCACAGUCUGGAUCUGUGCCCUAUUUCCAGCCAACAGAGGAUUGAGCAUCA
[reply] -0.09

[ask] Fill in reported log10 of binding signal for this entry: 244175_244709_261_3pUTR_ENSG00000185627_ENST00000382671|human|control|control (ssRNA) RNA: GGGAGUUCUACAGUCCGACGAUCUUACACAGGAUCACUGCCUCAUCACUACUUUUCACCUUCUCACGAGUCUUUUCCAGAAAAGUAAGAGCCACAUUAGGAUCAGUCAUCUGUCUAACUACAUGAAGAAUGAUUUCCACGAGGCAACAGAGGAUUGAGCAUCA
[reply] 0.17

[ask] Fill in reported log10 of binding signal for this entry: chr2:27535424:27535425:-_ENSG00000115204_ENST00000380044|hu_mus|FALSE|FALSE (ssRNA) RNA: GGGAGUUCUACAGUCCGACGAUCUUUGGCCCAAUUGUCCUGGGCUGACAUUCCAUUGAGUAUCCCGACCAGUGGGAGAAAGCAGCCUAGGAAACAUGGGGCAAAGCCCCCCUGAUCUAACAACAUCUUCUUCAGUGCAUGCACCAACAGAGGAUUGAGCAUCA
[reply] -0.09

[ask] Fill in reported log10 of binding signal for this entry: 103221519_103221723_537_3pUTR_ENSMUSG00000041781_ENSMUST00000047357|mouse|control|control (ssRNA) RNA: GGGAGUUCUACAGUCCGACGAUCCAAUCUGAGAGAACUUCAGCUGCUGUAUUUUGUCAAAGGCUGCAUCCACAUCAUCCAAUGUAAAGAGGGUAAAAUCUUCUGUAUUGUGUCGAGACUGAUAGAGGUCGUACAUGAACAUCUCAACAGAGGAUUGAGCAUCA
[reply] 0.20

[ask] Fill in reported log10 of binding signal for this entry: chr7:7679991:7679992:-_ENSG00000106399_ENST00000396682|hu_hu|hu_hu_hu_mus_False|68_68 (ssRNA) RNA: GGGAGUUCUACAGUCCGACGAUCUGGGAUGAAUCUUUUCCAGCUUCCCCACGAAGCACACGGGCCGGUCGAUGAAUUGUGGUAACAUGCUGGCGUUGACGCGCGCUUUGGGGAGCUGCAUUAUGUCCUCCAUGAUUCUGCCGCCAACAGAGGAUUGAGCAUCA
[reply] -0.31

[ask] Fill in reported log10 of binding signal for this entry: chr17:60770872:60770873:+_ENSG00000011028_ENST00000303375|hu_hu|hu_hu_hu_mus_True|1_58 (ssRNA) RNA: GGGAGUUCUACAGUCCGACGAUCUCUUUAAAAAAAAAAAAAAAAAGACAAACAAUAAUAGCACAUUUCGAGAAUCAUCAACUACAGUAGAGGGUCCGCUUUGAGUUUUUGUUCACAUCGUCCUGCACUGGGACACGACCAGGACAACAGAGGAUUGAGCAUCA
[reply] 0.49
